The reported numbers originate from patent US11001590B2.

- experiment.description: log P by HPLC on reversed phase columns (Method L0; [a] acidic, [b] neutral range)
Decision: chromatographic logP beneath 4 gives MET; chromatographic logP meeting or exceeding 4 gives NOT MET.

>  <compound>
Cc1nn2c(C3CC3)c(C(=O)N[C@H]3CCc4ccccc43)cnc2c1-c1cccc(C(F)(F)F)c1 [Example 304]

>  <cat>
NOT MET

$$$$
>  <compound>
CC(C)c1c(C(=O)N[C@H]2CCOc3ccccc32)cnc2c(-c3cc(Cl)cc(Cl)c3)c(S(C)(=O)=O)nn12 [Example 219]

>  <cat>
NOT MET

$$$$
>  <compound>
CC(C)c1c(C(=O)N[C@H]2CCc3ccccc32)cnc2c(-c3cccc(F)c3)c(C(F)F)nn12 [Example 429]

>  <cat>
NOT MET

$$$$
>  <compound>
Cc1nn2c(C(C)C)c(C(=O)N[C@H]3CCc4ccccc43)cnc2c1-c1cnn(C)c1 [Example 303]

>  <cat>
MET

$$$$
>  <compound>
Cc1nn2c(C(C)C)c(C(=O)N[C@H]3CCCc4ccccc43)cnc2c1-c1cc(Cl)c(F)c(Cl)c1 [Example 128]

>  <cat>
NOT MET

$$$$
>  <compound>
Cc1nn2c(C(C)C)c(C(=O)N[C@H]3CCOc4ccccc43)cnc2c1-c1ccc2cc[nH]c2c1 [Example 243]

>  <cat>
MET

$$$$
>  <compound>
Cc1nn2c(C(C)C)c(C(=O)N[C@H]3CCc4ccccc43)cnc2c1-c1cncnc1 [Example 296]

>  <cat>
MET

$$$$
